The reported numbers originate from ChEMBL document CHEMBL4387722.

For Tyrosine-protein phosphatase non-receptor type 2 (Homo sapiens), measured IC50 is reported for the entries below.
Express your answer in µM, writing the number without its unit.

Using known records, supply IC50 for "Nc1ccc(S(=O)(=O)Nc2ccc(-c3nc4cc(NS(=O)(=O)c5ccc(N)cc5)ccc4o3)cc2)cc1"
32

Using known records, supply IC50 for "CCc1ccc(S(=O)(=O)Nc2ccc(-c3nc4ccccc4o3)cc2)cc1"
36

Using known records, supply IC50 for "O=S(=O)(Nc1ccc2oc(-c3ccccc3)nc2c1)c1ccc(Cl)c(Cl)c1"
33

Using known records, supply IC50 for "O=c1ccc2cc(S(=O)(=O)Nc3ccc4oc(-c5ccc(NS(=O)(=O)c6ccc(Cl)s6)cc5)nc4c3)ccc2o1"
9.3

Using known records, supply IC50 for "O=S(=O)(Nc1ccc(-c2nc3ccccc3o2)cc1)c1ccc(F)c(C(F)(F)F)c1"
36

Using known records, supply IC50 for "COc1cccc(S(=O)(=O)Nc2ccc3oc(-c4ccccc4)nc3c2)c1"
87

Using known records, supply IC50 for "O=S(=O)(Nc1ccc(-c2nc3cc(NS(=O)(=O)c4ccc5nsnc5c4)ccc3o2)cc1)c1ccc2nsnc2c1"
11

Using known records, supply IC50 for "COc1ccc(S(=O)(=O)Nc2ccc3oc(-c4ccccc4)nc3c2)cc1"
50
